# EXPERIMENTAL_CONTEXT: in isooctanol, 307.15 K
PROPERTY_MEASURED: solubility (mole fraction)

Which solubility (mole fraction) value belongs to C[C@@H]1CC[C@@]2(OC1)O[C@H]1C[C@H]3[C@@H]4CC=C5C[C@@H](O)CC[C@]5(C)[C@H]4CC[C@]3(C)[C@H]1[C@@H]2C ?
0.0114

---

# EXPERIMENTAL_CONTEXT: in tert-butanol, 308.15 K
PROPERTY_MEASURED: solubility (mole fraction)
Keep it simple and answer with nothing but the number.

Which solubility (mole fraction) value belongs to C[C@@H]1CC[C@@]2(OC1)O[C@H]1C[C@H]3[C@@H]4CC=C5C[C@@H](O)CC[C@]5(C)[C@H]4CC[C@]3(C)[C@H]1[C@@H]2C ?
0.00151

---

# EXPERIMENTAL_CONTEXT: in isobutanol, 311.65 K
PROPERTY_MEASURED: solubility (mole fraction)
Keep it simple and answer with nothing but the number.

Which solubility (mole fraction) value belongs to C[C@@H]1CC[C@@]2(OC1)O[C@H]1C[C@H]3[C@@H]4CC=C5C[C@@H](O)CC[C@]5(C)[C@H]4CC[C@]3(C)[C@H]1[C@@H]2C ?
0.00416

---

# EXPERIMENTAL_CONTEXT: in tert-butanol, 330.75 K
PROPERTY_MEASURED: solubility (mole fraction)
Keep it simple and answer with nothing but the number.

Which solubility (mole fraction) value belongs to C[C@@H]1CC[C@@]2(OC1)O[C@H]1C[C@H]3[C@@H]4CC=C5C[C@@H](O)CC[C@]5(C)[C@H]4CC[C@]3(C)[C@H]1[C@@H]2C ?
0.00497

---

# EXPERIMENTAL_CONTEXT: in isooctanol, 309.25 K
PROPERTY_MEASURED: solubility (mole fraction)
Keep it simple and answer with nothing but the number.

Which solubility (mole fraction) value belongs to C[C@@H]1CC[C@@]2(OC1)O[C@H]1C[C@H]3[C@@H]4CC=C5C[C@@H](O)CC[C@]5(C)[C@H]4CC[C@]3(C)[C@H]1[C@@H]2C ?
0.012

---

# EXPERIMENTAL_CONTEXT: in isobutanol, 326.95 K
PROPERTY_MEASURED: solubility (mole fraction)
Keep it simple and answer with nothing but the number.

Which solubility (mole fraction) value belongs to C[C@@H]1CC[C@@]2(OC1)O[C@H]1C[C@H]3[C@@H]4CC=C5C[C@@H](O)CC[C@]5(C)[C@H]4CC[C@]3(C)[C@H]1[C@@H]2C ?
0.00884
